Tested on: SF-295
assay-overview: NCI tumour cell line growth inhibition, 48 h
Calls of active or inactive are those of the source. Cut-off read from the data, not from the text of the source: active = GI50 up to about 1.1 µM and inactive = higher.
Reported GI50 values for a set of molecules
readout: GI50

molecule	target-desc	result
COc1ccc2c3c1C(=O)CCCC3CO2 (stereo unspecified)	SF-295	> 100 µM (inactive)
O=C(CC(=O)C1CCOC1=O)C(=O)Nc1ccc(Cl)cc1Cl (stereo unspecified)	SF-295	> 100 µM (inactive)
Cc1cc(C)nc(NS(=O)(=O)c2ccc(Nc3c4ccccc4nc4c(C(=O)Nc5ccc(S(=O)(=O)N=C(N)N)cc5)ccc(Cl)c34)cc2)n1	SF-295	47.2 µM (inactive)
CCOC(=O)CSc1nnc(C(Sc2nc(-c3ccccc3)c(-c3ccccc3)[nH]2)C(C)C)n1-c1ccccc1 (stereo unspecified)	SF-295	> 10 µM (inactive)
COc1cc(COC(=O)N2CCCCC2C(=O)O)c([N+](=O)[O-])cc1OC (stereo unspecified)	SF-295	> 100 µM (inactive)
CCOC(=O)C1C(=S)NC(=O)C1C#N (stereo unspecified)	SF-295	> 100 µM (inactive)
COc1ccccc1/C=C1\CCC(CCN2CCOCC2)C1=O (stereo unspecified)	SF-295	> 100 µM (inactive)
CC1(C)CCc2ccc(OCCC(=O)O)cc2O1	SF-295	> 100 µM (inactive)
COC(=O)Cc1ccc2c(cnn2-c2ccccc2)c1OC	SF-295	> 10 µM (inactive)
CC1=C(C(=O)Nc2ccc(Cl)c(C(=O)OC(C)C)c2)SCCO1	SF-295	54.7 µM (inactive)
CN(C)c1ccc(/C=c2/sc3nc(=O)c(-c4ccccc4NC(=O)C(F)(F)F)nn3c2=O)cc1	SF-295	> 100 µM (inactive)

* * *

Test system: M19-MEL
assay-overview: NCI tumour cell line growth inhibition, 48 h
The source made the active and inactive calls. Rule as the data show it: active = GI50 up to about 1.1 µM and inactive = higher.
Reported GI50 values for a set of molecules

molecule	GI50
C/C(CC(=O)Nc1cccc(Cl)c1C)=N\NC(N)=S	> 100 µM (inactive)
CCCNCCCC(NC(C)=O)C(=O)NCc1ccccc1 (stereo not given)	> 100 µM (inactive)
O=C(CSc1nnc(Cc2ccccc2)o1)Nc1ccccc1	> 100 µM (inactive)
O=C1[C@@H]2C(c3ccc(Cl)cc3Cl)=NO[C@@H]2C(=O)N1c1ccc(Cc2ccc(N3C(=O)[C@H]4C(c5ccc(Cl)cc5Cl)=NO[C@H]4C3=O)cc2)cc1	> 100 µM (inactive)
C#Cc1cc(CN(CC(=O)OC(C)(C)C)CC(=O)OC(C)(C)C)nc(CN(CC(=O)OC(C)(C)C)CC(=O)OC(C)(C)C)c1	6.4 µM (inactive)
CC(C)(C)OC1=C(OC(C)(C)C)C(O)(c2ccccc2)C1=O (stereo not given)	> 100 µM (inactive)
C/C=C/C1(C)/C(=N\O)C(C)(CCC)C(=O)N1O (stereo not given)	> 100 µM (inactive)
C/C(=N\NC(N)=S)c1ccc2c(c1)OCO2	> 100 µM (inactive)
CC(=O)OC1(C#N)CC2OC1C1C2N1C(=O)OC(C)(C)C (stereo not given)	> 100 µM (inactive)
Oc1cc(-c2ccccc2)nc2cc3c(cc12)OCO3	3.21 µM (inactive)

* * *

Reported GI50 values for a set of compounds
Test system: A549
assay-overview: NCI tumour cell line growth inhibition, 48 h
Calls of active or inactive are those of the source. Cut-off read from the data, not from the text of the source: active = GI50 up to about 1.1 µM and inactive = higher.
readout: GI50

compound	result
CNCCCCN(C)/[N+]([O-])=N\O	> 100 µM (inactive)
CC1=C2NCN(C)N=C2C(C#N)(C#N)C1(C#N)C#N	> 78.5 µM (inactive)
COC(=O)c1cc(C)ccc1CC(Cc1ccc(C)cc1)C(=O)OC (centres undefined)	12.9 µM (inactive)
CCN(CC)CCCC(C)Nc1c(Sc2cnc3cc(Cl)ccc3c2NC(C)CCCN(CC)CC)cnc2cc(Cl)ccc12 (centres undefined)	1.68 µM (inactive)

* * *

Reported GI50 values for a set of compounds
Test system: SF-268
assay-overview: NCI tumour cell line growth inhibition, 48 h
Active and inactive are the calls of the source. No stated cut-off is given here; in the data, active = GI50 up to about 1.1 µM and inactive = higher.
readout: GI50

compound	target-desc	result
COC(=O)Cc1ccc2c(cnn2-c2ccccc2)c1OC	SF-268	> 10 µM (inactive)
N=C(N)NCCCC(NC(=O)OCCCCCCn1ccc(N)nc1=O)C(=O)O (stereo unspecified)	SF-268	> 100 µM (inactive)
CC(=O)Nc1ccc2nc(-c3ccccn3)c(-c3ccccn3)nc2c1	SF-268	> 100 µM (inactive)
Cc1c(-c2nc(N)nc(C3CC3)c2C)nc(N)nc1C1CC1	SF-268	> 100 µM (inactive)
CC(=O)CC(N)=O	SF-268	> 100 µM (inactive)
O=C(Cc1nc2ccccc2s1)Nc1ccc(Cl)cc1	SF-268	> 100 µM (inactive)

* * *

Tested on: UO-31
assay-overview: NCI tumour cell line growth inhibition, 48 h
Active and inactive are the calls of the source. No stated cut-off is given here; in the data, active = GI50 up to about 1.1 µM and inactive = higher.

molecule	GI50
CC1=C(C(=O)OCCc2ccc([N+](=O)[O-])cc2)C(c2ccccc2C(F)(F)F)C(C(=O)OC(C)C)=C(C)N1 (configuration not stated)	4.19 µM (inactive)
CC[C@H](C)[C@H](NC(=O)[C@@]1(O)[C@H](O)[C@]2(CC)C=CCN3CC[C@@]4(c5cc(Br)c(OC)cc5N(C)[C@@H]14)[C@@H]32)C(=O)OC	44.4 µM (inactive)
CC(=O)c1c2c(cc3c1CC1(C3)Cc3cc4c(c(C(C)=O)c3C1)CCC4)CCC2	> 100 µM (inactive)
CNC(=O)OCc1nc(SSc2nc(COC(=O)NC)c(COC(=O)NC)n2C)n(C)c1COC(=O)NC	> 100 µM (inactive)
N#Cc1nc(Cc2ccccc2)oc1N	> 100 µM (inactive)
Clc1ccc(C(OCn2ccnc2)c2nc3ccccc3[nH]2)c(Cl)c1 (configuration not stated)	23.7 µM (inactive)
Cc1cc(C(=O)CCCCOc2ccc(C3=NCCO3)cc2)c(C)n1C	39.9 µM (inactive)
CC1(C)[C@@H]2CC[C@@]1(C)C1(S[S+]1[O-])C21Cc2ccccc2C1 (some centres not stated)	21.4 µM (inactive)
Brc1c(C#CCC(c2ccccc2)(c2ccccc2)c2ccccc2)ccc(C#CCC(c2ccccc2)(c2ccccc2)c2ccccc2)c1Br	> 100 µM (inactive)
O=C(c1ccccc1)c1ccc2c(c1)nc1n2C(c2c(Cl)cccc2Cl)SC1 (configuration not stated)	23.9 µM (inactive)
C/C(CCc1ccccc1)=N\NC(N)=S	> 100 µM (inactive)
O=C1/C(=C/c2ccccc2[N+](=O)[O-])N=C(c2ccccc2)N1c1nc2ccccc2s1	31.6 µM (inactive)
Nc1cccc(-c2cc(O)c3cc4c(cc3n2)OCO4)c1	12.5 µM (inactive)
Cc1ccc(NC(=O)C2C(=O)C(=O)N(c3ccc(C)cc3)C2=O)cc1 (configuration not stated)	> 100 µM (inactive)
Cc1ccccc1Nc1cn(CCOc2ccccc2)c(=O)n(CCOc2ccccc2)c1=O	> 100 µM (inactive)
COc1ccc(OC)c2c1C1CCC(=O)N1CN2C(C)=O (configuration not stated)	> 100 µM (inactive)
COC(=O)CN1CCN(c2cccc3c2CCCC3)CC1	92.3 µM (inactive)
CCOc1ccccc1NC(=O)CCC(=O)OC	> 100 µM (inactive)
O=c1cc(-c2ccc(O)c(O)c2)oc2cc(O[C@H]3O[C@H](CO)[C@@H](O)[C@H](O)[C@H]3O)cc(O)c12	11.2 µM (inactive)
Cc1ccc([N+](=O)[O-])cc1S(=O)(=O)Nc1ccc(C2=NNC(c3ccccc3)C2)cc1 (configuration not stated)	24.9 µM (inactive)
CCOC(=O)/C=C(/C(=O)OCC)n1ccc(=O)n(Cc2cn(COCCOC(C)=O)nn2)c1=O	18 µM (inactive)
Nc1ccc(-c2nc3ccc(F)cc3s2)cc1I	> 100 µM (inactive)
COCCOCOC(C)(C)[C@H](CCO)O[Si](c1ccccc1)(c1ccccc1)C(C)(C)C	13 µM (inactive)
CCCCOC(=O)CNC(=O)OCCCCC#CC#CCCCCOC(=O)NCC(=O)OCCCC	> 100 µM (inactive)
Cn1c(=O)[nH]c2sc3c(c2c1=N)CCCC3	> 75 µM (inactive)
COC(=O)c1cc(C)ccc1CC(Cc1ccc(C)cc1)C(=O)OC (configuration not stated)	17.1 µM (inactive)
O=C(Nc1c(O)[nH]c(=S)[nH]c1=O)c1ccccn1	> 100 µM (inactive)
O=c1[nH][nH]c(=O)n1/N=C/c1ccccc1	> 100 µM (inactive)
Cc1cc2c(c3c1c1ccccc1n3C)C(=O)c1ccccc1C2=O	> 100 µM (inactive)
CC(C(N)C(=O)NC(C(=O)O)C1OC(n2ccc(=O)[nH]c2=O)C(O)C1O)C(O)c1ccc(O)cn1 (configuration not stated)	> 100 µM (inactive)
CCCNCCCC(NC(C)=O)C(=O)NCc1ccccc1 (configuration not stated)	> 100 µM (inactive)
CC1=C(C(=O)Nc2ccc(Cl)c(C(=O)OC(C)C)c2)SCCO1	36.9 µM (inactive)
COC(=O)C1=C(C(=O)OC)C2(C3C(SC)=CC(C)(C)CC3S1)N(Cc1ccccc1)CCN2Cc1ccccc1 (configuration not stated)	> 100 µM (inactive)
COc1c(CC(C)=O)c2ccccc2n1C(C)=O	> 100 µM (inactive)
CCN(CC)CCN1C(=O)C(=O)N(c2cccc3ccccc23)C1=O	> 10 µM (inactive)
CN(C)C(CN)CC1=C(CC(CN)N(C)C)CCC1 (configuration not stated)	> 100 µM (inactive)
CCOC(=O)c1nc2ccc(C(F)(F)F)cc2nc1Oc1cc(OC)cc(OC)c1	> 100 µM (inactive)
CCCCCCCCCCCCCCCCOCC(CC(F)(F)P(=O)(OCC)OCC)OC(C)=O (configuration not stated)	16 µM (inactive)
Cc1c(C)c2c(c(N)c1C#N)C(=O)N(CCN1CCNCC1)C2=O	28.6 µM (inactive)
Cc1cc(OP2(=O)NCc3ncccc3O2)ccc1Cl (configuration not stated)	> 100 µM (inactive)
CC(=O)Nc1ccc2nc(-c3ccccn3)c(-c3ccccn3)nc2c1	> 100 µM (inactive)
CC1=NN(c2ccccc2Cl)C2(C1)C(Cl)C(=O)N2c1nc2ccccc2s1 (configuration not stated)	61.8 µM (inactive)
